- subject_of_test: VEGFR2 (Homo sapiens, UniProt P35968)
- Sequence (P35968 20-1356): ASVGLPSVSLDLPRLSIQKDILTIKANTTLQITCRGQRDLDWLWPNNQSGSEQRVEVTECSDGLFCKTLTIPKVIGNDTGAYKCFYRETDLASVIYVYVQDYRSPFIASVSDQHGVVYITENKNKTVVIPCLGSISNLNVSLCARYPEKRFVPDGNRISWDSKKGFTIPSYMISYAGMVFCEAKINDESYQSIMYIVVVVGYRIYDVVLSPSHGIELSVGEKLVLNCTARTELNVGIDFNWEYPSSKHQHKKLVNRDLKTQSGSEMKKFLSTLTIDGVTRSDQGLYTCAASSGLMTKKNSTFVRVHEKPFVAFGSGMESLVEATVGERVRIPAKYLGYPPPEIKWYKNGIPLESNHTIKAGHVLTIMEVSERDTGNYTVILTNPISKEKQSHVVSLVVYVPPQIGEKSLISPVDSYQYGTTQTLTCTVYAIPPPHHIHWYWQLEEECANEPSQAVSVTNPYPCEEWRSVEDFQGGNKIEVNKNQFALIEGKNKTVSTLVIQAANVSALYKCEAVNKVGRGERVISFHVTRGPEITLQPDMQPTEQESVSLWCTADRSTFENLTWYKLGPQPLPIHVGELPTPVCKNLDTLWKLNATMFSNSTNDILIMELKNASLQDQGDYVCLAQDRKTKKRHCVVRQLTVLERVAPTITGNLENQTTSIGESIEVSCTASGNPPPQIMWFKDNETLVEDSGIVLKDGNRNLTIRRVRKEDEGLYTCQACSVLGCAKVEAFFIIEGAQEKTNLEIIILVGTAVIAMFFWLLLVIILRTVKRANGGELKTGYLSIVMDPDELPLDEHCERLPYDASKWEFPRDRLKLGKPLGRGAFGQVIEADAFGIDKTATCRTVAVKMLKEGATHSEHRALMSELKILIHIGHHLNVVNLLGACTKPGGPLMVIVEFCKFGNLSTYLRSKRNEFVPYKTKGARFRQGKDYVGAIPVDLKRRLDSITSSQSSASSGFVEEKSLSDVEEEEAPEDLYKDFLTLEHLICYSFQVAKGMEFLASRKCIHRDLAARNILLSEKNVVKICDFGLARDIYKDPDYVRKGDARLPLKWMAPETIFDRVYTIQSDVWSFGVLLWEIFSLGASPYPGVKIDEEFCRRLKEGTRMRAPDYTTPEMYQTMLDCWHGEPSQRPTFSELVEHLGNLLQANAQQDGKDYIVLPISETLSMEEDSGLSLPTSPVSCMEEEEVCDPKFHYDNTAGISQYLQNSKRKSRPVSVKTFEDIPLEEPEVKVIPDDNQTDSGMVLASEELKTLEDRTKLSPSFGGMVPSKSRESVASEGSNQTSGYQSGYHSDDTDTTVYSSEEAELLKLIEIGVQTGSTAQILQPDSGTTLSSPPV
- assay_name: pull-down binding assay with endogenous VEGFR2 from HUVEC lysates
- Set-up: endogenous in cells; host or cells: HUVEC
- protocol_conditions: HUVEC lysate, anti-VEGFR2 western blot
endpoint_label: VEGFR2 binding

{"substance": "VRVTVQLSHPADMQLVLR (listed as Homo sapiens) [DUF2C8, KIF13B residues 1251-1268]", "result": "weakly bind VEGFR2"}
{"substance": "DUF2B: residues 1168-1216 of KIF13B, recombinant protein (THIPVIFLDLNADDFSSQDNLDDPEAGGWDATLTGEEEEEFFELQIVKQ; left off: small tags and cut ends)", "result": "failed to bind"}
{"substance": "PQLSRGTPVDERLFLIVR (listed as Homo sapiens) [DUF2C9, KIF13B residues 1235-1252]", "result": "weakly bind VEGFR2"}
{"substance": "DUF2A: residues 1111-1167 of KIF13B, recombinant protein (QKLVSKRDKTEDDADREAQLLEMRLTLTEERNAVMVPSAGSGIPGAPAEWTPVPGME; left off: small tags and cut ends)", "result": "failed to bind"}
